- Tested on: isolated hepatocytes
- ASSAY_DETAILS: Formation of lipid peroxide in isolated hepatocytes after addition of carbon tetrachloride
- Format: cell-based, rat
- CONDITION_CONTEXT: Rattus norvegicus, Hepatocyte; Concentration 10 µM; carbon tetrachloride 5 mM; 3 hours; read-out: Free MDA (3 hours) % Inhibition
# inhibition at 10 µM >= 40% gives true (1), anything below gives false (0)

>  <MOLECULE>
CCOc1c(N)c2c(c(OCC)c1OCC)C(C1c3c(cc4c(c3OC)OCO4)CCN1CC)OC2=O (stereo not drawn) [compound 5]

>  <TEST_SYSTEM>
isolated hepatocytes

>  <CATEGORY>
true (1)

$$$$
>  <MOLECULE>
CCOc1c(N)c2c(c(OCC)c1OCC)C(C1c3c(cc4c(c3OC)OCO4)CCN1C)OC2=O (stereo not drawn) [Compound No. 1]

>  <TEST_SYSTEM>
isolated hepatocytes

>  <CATEGORY>
true (1)

$$$$
>  <MOLECULE>
CCOc1c(OCC)c2c(c([N+](=O)[O-])c1OCC)C(=O)OC2C1c2c(cc3c(c2OC)OCO3)CCN1C (stereo not drawn) [compound 4]

>  <TEST_SYSTEM>
isolated hepatocytes

>  <CATEGORY>
false (0)

$$$$
>  <MOLECULE>
CCOc1c(N)c2c(c(OCC)c1OCC)C(C1c3c(cc(OC)c4c3OCO4)CCN1C)OC2=O (stereo not drawn) [compound 3]

>  <TEST_SYSTEM>
isolated hepatocytes

>  <CATEGORY>
true (1)

$$$$
>  <MOLECULE>
CCOc1c(N)c2c(c(OCC)c1OCC)C(C1c3cc(OC)c(OC)cc3CCN1C)OC2=O (stereo not drawn) [compound 6]

>  <TEST_SYSTEM>
isolated hepatocytes

>  <CATEGORY>
true (1)

$$$$
>  <MOLECULE>
COc1ccc2c(c1OC)C(=O)OC2C1c2c(cc3c(c2OC)OCO3)CCN1C (stereo not drawn) [compound 2]

>  <TEST_SYSTEM>
isolated hepatocytes

>  <CATEGORY>
true (1)

$$$$

====

- ASSAY_DETAILS: Plasma concentration (AUC) after oral administration to beagle dogs, after fast or after diet
- Assay type: in vivo
- CONDITION_CONTEXT: male, dog, 200 mg/kg, 30 minutes after diet, Micronisation 200 mg/kg oral, dogs No. 1-5 and mean in last row, read-out: AUC of tritoqualine concentration in blood for 5 hours
- Procedure: Tritoqualine was orally administered to male beagle dogs, […], body weight of 9.5 - 12 kg, Hazleton, after fast or 30 minutes after diet in a dose of 200 mg/kg. […] The quantitative measurements of tritoqualine in the plasma were carried out according to the internal standard method. The area under curve (AUC) was calculated by the trapezoidal rule. […]

>  <COMPOUND>
CCOc1c(N)c2c(c(OCC)c1OCC)C(C1c3c(cc4c(c3OC)OCO4)CCN1C)OC2=O (stereo not shown)

>  <VALUE_UNIT>
ng·h/mL

>  <AUC>
674

$$$$

====

- System: rat polymorphonuclear leukocytes (PMN)
- ASSAY_DETAILS: Production of O2- by polymorphonuclear leukocytes stimulated with PMA (cytochrome C reduction)
- Assay type: cell-based
- CONDITION_CONTEXT: Leukocyte, Conc. 3.3 µM, PMA 125 ng/ml

>  <COMPOUND>
CCOc1c(N)c2c(c(OCC)c1OCC)C(C1c3c(cc4c(c3OC)OCO4)CCN1C)OC2=O (stereo not shown) [Compound No. 1]

>  <VALUE_UNIT>
%

>  <inhibition at 3.3 µM>
15.4

$$$$
>  <COMPOUND>
CCOc1c(N)c2c(c(OCC)c1OCC)C(C1c3c(cc4c(c3OC)OCO4)CCN1CC)OC2=O (stereo not shown) [compound 5]

>  <VALUE_UNIT>
%

>  <inhibition at 3.3 µM>
49.2

$$$$
>  <COMPOUND>
CCOc1c(N)c2c(c(OCC)c1OCC)C(C1c3cc(OC)c(OC)cc3CCN1C)OC2=O (stereo not shown) [compound 6]

>  <VALUE_UNIT>
%

>  <inhibition at 3.3 µM>
0.9

$$$$
>  <COMPOUND>
CCOc1c(N)c2c(c(OCC)c1OCC)C(C1c3c(cc(OC)c4c3OCO4)CCN1C)OC2=O (stereo not shown) [compound 3]

>  <VALUE_UNIT>
%

>  <inhibition at 3.3 µM>
34.9

$$$$
